# test-target: T1, hErbB3.mFc (soluble dimeric human ErbB3 extracellular domain fused to mouse Fc) (human)
# T1 construct: called dimeric
# T1 chain: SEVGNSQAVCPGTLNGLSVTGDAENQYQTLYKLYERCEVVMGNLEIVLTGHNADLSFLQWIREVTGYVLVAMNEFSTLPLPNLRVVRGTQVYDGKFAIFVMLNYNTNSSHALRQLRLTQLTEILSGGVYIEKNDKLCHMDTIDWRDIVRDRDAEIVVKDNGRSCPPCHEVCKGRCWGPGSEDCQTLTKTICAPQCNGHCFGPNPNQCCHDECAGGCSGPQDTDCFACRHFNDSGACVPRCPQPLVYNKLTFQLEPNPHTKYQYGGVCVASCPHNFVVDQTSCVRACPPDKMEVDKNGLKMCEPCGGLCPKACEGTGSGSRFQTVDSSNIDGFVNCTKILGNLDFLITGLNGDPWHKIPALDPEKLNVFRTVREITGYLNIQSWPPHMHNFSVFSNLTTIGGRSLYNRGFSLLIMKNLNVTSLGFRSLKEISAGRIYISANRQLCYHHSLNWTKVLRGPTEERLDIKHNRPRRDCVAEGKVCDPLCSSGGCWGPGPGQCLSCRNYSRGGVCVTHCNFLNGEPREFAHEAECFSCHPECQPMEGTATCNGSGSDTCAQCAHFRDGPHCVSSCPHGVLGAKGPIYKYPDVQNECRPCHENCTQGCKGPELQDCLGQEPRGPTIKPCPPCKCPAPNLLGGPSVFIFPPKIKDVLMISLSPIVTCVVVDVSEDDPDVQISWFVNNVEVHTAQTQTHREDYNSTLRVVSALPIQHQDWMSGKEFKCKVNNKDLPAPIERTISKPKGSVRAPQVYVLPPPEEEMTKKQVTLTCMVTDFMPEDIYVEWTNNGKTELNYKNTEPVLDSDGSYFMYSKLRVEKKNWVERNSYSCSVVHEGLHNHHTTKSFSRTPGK
# measurement-description: SPR (Biacore), 25 C, mAb capture format
Quick reference: koff of the listed items.
Please respond with the number in s⁻¹ and leave the unit unwritten.

Q. Which value of koff has been reported for H4H2290P (antibody, V domains shown, Fully human, human IgG4 Fc (H4H prefix)) VH: EVQLLESGGGLVQPGGSLRLSCVASGFTFSSFAMSWVRQAPGKGLEWVSVISGSGGSTNHADSVRGRFTISRDNSLNTVYLQMHSLRAEDTALYYCVKAETSSSYFYYGMDVWGQGTTVTVSS VL: DIQLTQSPSFLSASVGDRVTITCWASQDISSYLAWYQQKPGKVPNLLIYGASSLQPGVPSRFSGSGSGTEFTLTISSLQPEDFATYYCQQLNNYPTFGGGTKLEIKR in the records?
A. 1.13e-05

Q. Requested field: koff. Item: H4H2140P (antibody, V domains shown, Fully human, human IgG4 Fc (H4H prefix)) VH: EVQLVESGGGLVQPGGSLRLSCAASGFSVSYYDMHWVRQVTGKGLEWVSAIGPAGDTYYPGSVKGRFTISREDATNSLYLQIHSLGAGDTAVYYCAREGAIAARPDDYYGMDVWGQGTTVTVSS VL: DIQLTQSPSFLSASVGDRVTITCWASQDISSYLAWYQQKPGKAPKLLIYAASTLQSGVPSRFSGSGSGTEFTLTISSLQPEDFATYYCQQLNSYPLTFGGGTKVEIKR
A. 9.86e-07

Q. # input binder: H4H2148P (antibody, V domains shown, Fully human, human IgG4 Fc (H4H prefix)) VH: EVQLVESGGGLVHPGRSLRLSCAASGFTFDDYAMHWVRQSPGKGLEWVSGISWNSVIKHSTDSVRGRFTISRDNAKNSLYLQMNSLKPEDTAFYYCAKDEDDWNYLDYWGQGTLVTVSS VL: DIQMTQSPSSVSASVGDRVTITCRASQDINSWLAWYQQKPGKAPKLLIYTSSNLQSGVPSRFSGSGSGTDFTLTISSLQPEDFATYYCQQSDSFPFTFGPGTKVDIKR ; wanted: its koff
A. 1.74e-06
